- target: CDK7/CyclinH/MAT1 (Homo sapiens, UniProt P50613)
- Construct: His
- Sequence (P50613 whole entry): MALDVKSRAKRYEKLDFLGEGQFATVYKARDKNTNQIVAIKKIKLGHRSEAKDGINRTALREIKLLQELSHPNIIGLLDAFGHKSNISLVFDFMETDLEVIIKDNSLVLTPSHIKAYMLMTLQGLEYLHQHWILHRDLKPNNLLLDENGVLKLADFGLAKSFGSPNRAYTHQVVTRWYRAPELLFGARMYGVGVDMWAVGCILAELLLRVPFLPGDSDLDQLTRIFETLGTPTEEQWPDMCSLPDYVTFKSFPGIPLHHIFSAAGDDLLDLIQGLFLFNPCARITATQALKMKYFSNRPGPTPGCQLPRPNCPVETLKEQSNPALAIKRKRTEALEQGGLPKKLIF
- Sequence (P51946 whole entry partner): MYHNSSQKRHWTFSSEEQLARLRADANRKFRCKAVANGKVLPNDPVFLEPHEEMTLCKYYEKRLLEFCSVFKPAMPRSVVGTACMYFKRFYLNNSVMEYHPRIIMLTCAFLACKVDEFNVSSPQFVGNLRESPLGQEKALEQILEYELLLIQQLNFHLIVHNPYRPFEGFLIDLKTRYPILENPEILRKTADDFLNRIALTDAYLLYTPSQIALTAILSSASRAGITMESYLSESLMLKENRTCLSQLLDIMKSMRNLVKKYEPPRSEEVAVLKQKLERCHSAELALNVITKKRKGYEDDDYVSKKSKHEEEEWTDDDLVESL
- Sequence (P51948 whole entry partner): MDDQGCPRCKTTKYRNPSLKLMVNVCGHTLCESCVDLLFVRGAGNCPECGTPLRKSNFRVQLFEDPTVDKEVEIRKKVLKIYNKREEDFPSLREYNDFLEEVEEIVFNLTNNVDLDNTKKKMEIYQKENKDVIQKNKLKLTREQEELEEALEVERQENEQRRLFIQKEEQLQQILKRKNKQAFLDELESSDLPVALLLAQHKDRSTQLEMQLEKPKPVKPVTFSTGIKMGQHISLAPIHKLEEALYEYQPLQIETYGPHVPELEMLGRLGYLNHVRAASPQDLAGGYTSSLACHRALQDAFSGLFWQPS
- run_description: Lance Ultra KinaSelect Assay, CDK7
- experimental_parameters: ATP 25 μM; read-out: CDK7 LANCE assay (activity range), IC50
- Protocol: 2. […] It is detected by using a specific […] The compounds of general formula (I) summarized in Table 5 were diluted from a 10 mM DMSO stock solution 1:10 in a total volume of 15 μL DMSO. […] Positive and negative controls were calculated from at least 8 different sample wells. […] Before reading, 10 μL the detection buffer (Lance Detection Buffer 1×; EDTA: […]; Eu-Anti-P-MBP: see Table 3) was added. […]
pIC50: −log10 of the molar value.
experimental_endpoint: pIC50

The following molecules have reported results that may help.
COC[C@H]1CCCN1c1ncnc(Nc2cccc(CS(N)(=O)=O)c2)n1 | < 5.00
CN(C)CCC1CCCCN1c1ncnc(Nc2cccc(CS(N)(=O)=O)c2)n1 (racemic) | < 5.00
NS(=O)(=O)Cc1cccc(Nc2ncnc(N3CCCn4nccc43)n2)c1 | 5.00 to 6.00
NS(=O)(=O)Cc1cccc(Nc2ncnc(N3CCCC3c3ccccc3)n2)c1 (racemic) | < 5.00
NS(=O)(=O)Cc1cccc(Nc2ncnc(N3CCc4ncccc4C3)n2)c1 | < 5.00

Lab note: NS(=O)(=O)Cc1cccc(Nc2ncnc(N3Cc4cn[nH]c4C3)n2)c1 gave pIC50 of < 5.00

Lab note: NS(=O)(=O)Cc1cccc(Nc2ncnc(N3CCc4ncsc4C3)n2)c1 gave pIC50 of 5.00 to 6.00

Lab note: NS(=O)(=O)Cc1cccc(Nc2ncnc(N3CCCCC3)n2)c1 gave pIC50 of < 5.00

----------
- Tested on: LPS-induced TNF alpha release in PBMCs
- run_description: TNF alpha Release Assay
- Type: cell-based
- experimental_parameters: Homo sapiens, PBMC, 1 μg/mL LPS, 6 h, read-out: TNF alpha release (activity range), IC50
Recorded IC50, one value per entry.

COC[C@H]1CCCN1c1ncnc(Nc2cccc(CS(N)(=O)=O)c2)n1 | 1 to 10 µM

Lab note: NS(=O)(=O)Cc1cccc(Nc2ncnc(N3CCCCC3)n2)c1 gave IC50 of > 10 µM

----------
Recorded pKd, one value per entry.
- target: CDK9/Cyclin K (Homo sapiens)
- Construct: His; purchased Invitrogen
- Sequence (P50750 whole entry): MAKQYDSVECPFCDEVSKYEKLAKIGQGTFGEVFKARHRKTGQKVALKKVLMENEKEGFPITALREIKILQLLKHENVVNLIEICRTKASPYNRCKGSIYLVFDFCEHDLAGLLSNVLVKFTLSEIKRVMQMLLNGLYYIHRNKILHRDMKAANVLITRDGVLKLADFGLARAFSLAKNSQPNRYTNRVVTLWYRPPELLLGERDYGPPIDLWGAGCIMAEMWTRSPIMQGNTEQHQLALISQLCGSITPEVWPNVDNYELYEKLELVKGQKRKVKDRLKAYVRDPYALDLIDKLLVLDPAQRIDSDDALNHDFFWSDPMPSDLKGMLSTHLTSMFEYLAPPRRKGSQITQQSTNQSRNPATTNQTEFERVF
- Sequence (O75909 1-357 isoform O75909-1 partner): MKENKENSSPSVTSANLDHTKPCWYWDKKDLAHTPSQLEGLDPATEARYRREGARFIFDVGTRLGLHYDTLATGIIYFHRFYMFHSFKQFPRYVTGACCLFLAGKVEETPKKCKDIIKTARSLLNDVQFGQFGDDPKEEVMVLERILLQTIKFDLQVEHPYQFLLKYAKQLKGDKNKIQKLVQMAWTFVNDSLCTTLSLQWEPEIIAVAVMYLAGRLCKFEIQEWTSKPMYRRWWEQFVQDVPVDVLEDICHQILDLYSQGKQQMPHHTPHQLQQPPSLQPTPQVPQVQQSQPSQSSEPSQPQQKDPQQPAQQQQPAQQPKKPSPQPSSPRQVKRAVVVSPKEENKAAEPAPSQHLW
- run_description: LanthaScreen Eu Kinase Binding Assay, CDK9/Cyclin K
- experimental_parameters: tracer 236, read-out: CDK9/Cyclin K (activity range), Kd
pKd: −log10 of the molar value.

The following compounds have reported results that may help.
C[C@@H]1CCCN1c1ncnc(Nc2cccc(CS(N)(=O)=O)c2)n1 | 5.00 to 6.00
NS(=O)(=O)Cc1cccc(Nc2ncnc(N3CCOCC3)n2)c1 | 6.00 to 7.00
NS(=O)(=O)Cc1cccc(Nc2ncnc(N3CCC[C@H]3CO)n2)c1 | 5.00 to 6.00
NS(=O)(=O)Cc1cccc(Nc2ncnc(N3CCCCC3)n2)c1 | 6.00 to 7.00
NS(=O)(=O)Cc1cccc(Nc2ncnc(N3CCC[C@@H]3CN3CCCC3)n2)c1 | < 5.00
NS(=O)(=O)Cc1cccc(Nc2ncnc(N3CCn4ccnc4C3)n2)c1 | 5.00 to 6.00

Lab note: NS(=O)(=O)Cc1cccc(Nc2ncnc(N3CCCC3Cc3ccccc3)n2)c1 (racemic) gave pKd of 6.00 to 7.00

Lab note: COC[C@H]1CCCN1c1ncnc(Nc2cccc(CS(N)(=O)=O)c2)n1 gave pKd of 6.00 to 7.00

Lab note: NS(=O)(=O)Cc1cccc(Nc2ncnc(N3CCC[C@@H]3COc3ccccc3)n2)c1 gave pKd of 5.00 to 6.00

Lab note: CN(C)CCC1CCCCN1c1ncnc(Nc2cccc(CS(N)(=O)=O)c2)n1 (racemic) gave pKd of 5.00 to 6.00

Lab note: COC[C@@H]1CCCN1c1ncnc(Nc2cccc(CS(N)(=O)=O)c2)n1 gave pKd of < 5.00

Lab note: NS(=O)(=O)Cc1cccc(Nc2ncnc(N3CCc4nc[nH]c4C3)n2)c1 gave pKd of > 7.00

Lab note: NS(=O)(=O)Cc1cccc(Nc2ncnc(N3CCCC3CCc3ccccc3)n2)c1 (racemic) gave pKd of 5.00 to 6.00

Lab note: NC(=O)[C@H]1CCCN1c1ncnc(Nc2cccc(CS(N)(=O)=O)c2)n1 gave pKd of < 5.00

Lab note: NS(=O)(=O)Cc1cccc(Nc2ncnc(N3CCCc4ccccc43)n2)c1 gave pKd of > 7.00

Lab note: NS(=O)(=O)Cc1cccc(Nc2ncnc(N3CCC(F)(F)CC3)n2)c1 gave pKd of 6.00 to 7.00

Lab note: NS(=O)(=O)Cc1cccc(Nc2ncnc(N3CCC[C@@H]3CO)n2)c1 gave pKd of 5.00 to 6.00
